Where do these numbers come from? They come from patent US20210300943A1.

Biological target: OGA (Homo sapiens, UniProt O60502)
Construct: endogenous in cells; host or cells: HEK293 cells inducible for P301L mutant human Tau (2N4R)
Experiment: OGA cellular assay (ICC detection of O-GlcNAcylated proteins in HEK293 cells inducible for P301L mutant human Tau)
Assay type: cell-based
Settings: HEK293, HEK293 cells inducible for P301L mutant human Tau, maximal effect; Thiamet G 200 uM as maximum
parameter: Emax (%)

[[record]]
compound = "COc1cc(C[C@H]2CCCN([C@H](C)c3ccc4c(n3)OCCO4)C2)cc(C)n1 [Product 64]"
parameter = "Emax"
measurement_unit = "%"
measurement = 97


[1] Cc1cc(CC2(F)CCCN([C@H](C)c3ccc4c(n3)OCCO4)C2)cc(C)n1 (single isomer, unassigned) [Product 176]
[2] Cc1cc(OC[C@@H]2CCCN([C@H](C)c3ccc4c(n3)OCCO4)C2)cc(C)n1 (relative stereo) [Product 109]
Which entry shows the lesser value of Emax here, 1 or 2 ? Indicate which entry you chose by stating its label.
2
(2: 37%, 1: 69%)

###

Target: OGA (Homo sapiens, UniProt O60502)
Construct: endogenous in cells; host or cells: HEK293 cells inducible for P301L mutant human Tau (2N4R)
Experiment: OGA cellular assay (ICC detection of O-GlcNAcylated proteins in HEK293 cells inducible for P301L mutant human Tau)
Format: cell-based
Conditions: HEK293 cells inducible for P301L mutant human Tau, 6 hours incubation; read-out: Cellular hOGA; pEC50 (converted)
parameter: EC50 (nM)

[[record]]
molecule = "Cc1cc(OC[C@H]2CCCN([C@@H](C)c3nc4c(cc3F)OCCO4)C2)cc(C)n1 [Product 153]"
measurement_unit = "nM"
measurement = 2.51


[a] Cc1cc(NCC2CCCN(C(C)c3ccc4c(n3)OCCO4)C2)cc(C)n1 (stereo not shown) [Product 21]
[b] Cc1cc([C@H]2CCCN([C@H](C)c3ccc4c(n3)OCCO4)C2)cc(C)n1 (single isomer, unassigned) [Product 158]
Which entry shows the lesser value of EC50 here, a or b ? Indicate which entry you chose by stating its label.
a
(a: 15.8 nM, b: 39.8 nM)

###

Molecular target: OGA (Homo sapiens)
Construct: endogenous in cells; host or cells: HEK293 cells inducible for P301L mutant human Tau (2N4R)
Sequence (O60502 1-916): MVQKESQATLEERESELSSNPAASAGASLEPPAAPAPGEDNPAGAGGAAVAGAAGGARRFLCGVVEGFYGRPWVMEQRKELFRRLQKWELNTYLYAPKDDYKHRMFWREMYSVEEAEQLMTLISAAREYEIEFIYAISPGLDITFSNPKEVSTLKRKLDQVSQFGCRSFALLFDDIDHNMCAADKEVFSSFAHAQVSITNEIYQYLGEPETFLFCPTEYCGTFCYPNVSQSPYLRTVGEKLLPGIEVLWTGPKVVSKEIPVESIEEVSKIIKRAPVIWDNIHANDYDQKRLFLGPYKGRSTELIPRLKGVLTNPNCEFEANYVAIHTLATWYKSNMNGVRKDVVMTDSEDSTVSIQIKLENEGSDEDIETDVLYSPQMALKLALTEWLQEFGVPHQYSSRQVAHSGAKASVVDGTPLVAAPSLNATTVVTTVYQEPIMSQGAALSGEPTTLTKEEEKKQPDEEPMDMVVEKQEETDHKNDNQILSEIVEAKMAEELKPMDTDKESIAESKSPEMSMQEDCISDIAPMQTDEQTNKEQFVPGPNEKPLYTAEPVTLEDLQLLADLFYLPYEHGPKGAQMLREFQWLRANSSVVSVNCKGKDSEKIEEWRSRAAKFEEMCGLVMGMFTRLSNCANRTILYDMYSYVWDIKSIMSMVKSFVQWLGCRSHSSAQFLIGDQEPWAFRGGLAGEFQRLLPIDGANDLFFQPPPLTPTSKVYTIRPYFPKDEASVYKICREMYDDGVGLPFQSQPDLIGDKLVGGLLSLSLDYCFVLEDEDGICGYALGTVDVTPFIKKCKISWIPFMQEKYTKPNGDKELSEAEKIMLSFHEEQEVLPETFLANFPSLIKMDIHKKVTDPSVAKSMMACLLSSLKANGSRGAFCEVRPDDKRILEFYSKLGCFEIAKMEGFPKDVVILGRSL
Test: OGA cellular assay (ICC detection of O-GlcNAcylated proteins in HEK293 cells inducible for P301L mutant human Tau)
Format: cell-based
Details: HEK293, HEK293 cells inducible for P301L mutant human Tau, maximal effect; Thiamet G 200 uM as maximum
parameter: Emax (%)

[[record]]
compound = "Cc1cc(NCC2CCCN(C(C)c3ccc4c(n3)OCCO4)C2)cc(C)n1 (stereo not drawn)"
parameter = "Emax"
measurement_unit = "%"
measurement = 88


[P] Cc1cc(C[C@H]2CCCN(C(C)c3cnc4c(c3)OCCN4C)C2)cc(C)n1 (mixture of isomers)
[Q] Cc1cc([C@H]2CCCN([C@@H](C)c3ccc4c(n3)OCCO4)C2)cc(C)n1 (single isomer, unassigned)
Short answer wanted: higher Emax, P or Q ? Indicate which entry you chose by stating its label.
P
(P: 78%, Q: 0%)
